experiment: Bioavailability study: pharmacokinetics after single intravenous or oral dose in mouse; assay type: in vivo; conditions: male, CD-1, mouse, plasma, iv, 1 mg/kg, IV 1 mg/kg, individual animal
readout name: half-life

>  <molecule>
CO[C@@H]1CC[C@@H](CNc2ccc(S(=O)(=O)NC(=O)c3ccc(N4CCN5CC6=C(c7ccc(Cl)cc7)CC(C)(C)C[C@H]6OCCCOC[C@@H]5C4)cc3N3CCCOc4nc5[nH]ccc5cc43)cc2[N+](=O)[O-])OC1 [Example 25]

>  <readout name>
half-life

>  <result>
600 min

$$$$

----------
Assay: Bioavailability study: pharmacokinetics after single intravenous or oral dose in mouse
Assay type: in vivo
Settings: male, CD-1, mouse, plasma, po, 1 mg/kg, PO 1 mg/kg, individual animal
Experimental: Studies were conducted to evaluate the pharmacokinetic profiles of Example 25 herein and Example 2 in WO 2019/040550 after single intravenous or oral dose in mouse. CD-1 mice (male) were obtained from Charles River Laboratories (Wilmington, MA). The pharmacokinetics of Example 25 herein and Example 2 in WO 2019/040550 were evaluated following single 1 mg/kg intravenous or oral doses in mouse. […]

>  <molecule>
CO[C@@H]1CC[C@@H](CNc2ccc(S(=O)(=O)NC(=O)c3ccc(N4CCN5CC6=C(c7ccc(Cl)cc7)CC(C)(C)C[C@H]6OCCCOC[C@@H]5C4)cc3N3CCCOc4nc5[nH]ccc5cc43)cc2[N+](=O)[O-])OC1

>  <Cmax / ng/mL>
210

$$$$

----------
test: Bioavailability study: pharmacokinetics after single intravenous or oral dose in mouse; assay type: in vivo; settings: male, CD-1, mouse, plasma, iv, 1 mg/kg, IV 1 mg/kg, mean

>  <molecule>
CO[C@@H]1CC[C@@H](CNc2ccc(S(=O)(=O)NC(=O)c3ccc(N4CCN5CC6=C(c7ccc(Cl)cc7)CC(C)(C)C[C@H]6OCCCOC[C@@H]5C4)cc3N3CCCOc4nc5[nH]ccc5cc43)cc2[N+](=O)[O-])OC1

>  <C0, ng/mL>
4160

$$$$

----------
The reader will find Ki measurements below, all made with Bcl-2 protein (Homo sapiens (Human)).
Sequence (P10415 other isoform, or with tags, fused parts or gaps): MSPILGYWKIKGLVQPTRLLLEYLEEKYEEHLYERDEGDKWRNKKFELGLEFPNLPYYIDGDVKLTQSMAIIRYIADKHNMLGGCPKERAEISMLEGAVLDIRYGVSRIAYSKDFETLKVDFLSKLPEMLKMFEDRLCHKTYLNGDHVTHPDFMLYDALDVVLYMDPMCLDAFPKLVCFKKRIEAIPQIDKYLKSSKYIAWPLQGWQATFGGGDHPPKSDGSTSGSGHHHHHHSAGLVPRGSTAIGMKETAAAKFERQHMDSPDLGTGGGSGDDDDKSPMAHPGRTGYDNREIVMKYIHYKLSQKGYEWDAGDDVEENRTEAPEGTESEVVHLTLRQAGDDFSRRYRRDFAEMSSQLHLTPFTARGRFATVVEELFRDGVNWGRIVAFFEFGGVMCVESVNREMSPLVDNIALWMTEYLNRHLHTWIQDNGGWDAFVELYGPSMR

>  <molecule>
CC1(C)CC(c2ccc(Cl)cc2)=C2CN3CCN(c4ccc(C(=O)NS(=O)(=O)c5ccc(OC[C@H]6CC[C@](C)(O)CC6)c(Cl)c5)c(N5CCCOc6nc7[nH]ccc7cc65)c4)C[C@H]3COCCCO[C@@H]2C1

>  <system name>
Bcl-2 protein (Homo sapiens (Human))

>  <Ki [pM]>
85.3

$$$$
>  <molecule>
CC1(C)CC(c2ccc(Cl)cc2)=C2CN3CCN(c4ccc(C(=O)NS(=O)(=O)c5cnc(OC[C@H]6CC[C@](C)(O)CC6)c(Cl)c5)c(N5CCCOc6nc7[nH]ccc7cc65)c4)C[C@H]3COCCCO[C@@H]2C1

>  <system name>
Bcl-2 protein (Homo sapiens (Human))

>  <Ki [pM]>
159

$$$$
>  <molecule>
CO[C@]1(CF)C[C@@H](CNc2ccc(S(=O)(=O)NC(=O)c3ccc(N4CCN5CC6=C(c7ccc(Cl)cc7)CC(C)(C)C[C@H]6OCCCOC[C@@H]5C4)cc3N3CCCOc4nc5[nH]ccc5cc43)cc2[N+](=O)[O-])C1

>  <system name>
Bcl-2 protein (Homo sapiens (Human))

>  <Ki [pM]>
206

$$$$
>  <molecule>
CC1(C)CC(c2ccc(Cl)cc2)=C2CN3CCN(c4ccc(C(=O)NS(=O)(=O)c5ccc(OC[C@H]6CC[C@H](N7CCOCC7)CC6)c(Cl)c5)c(N5CCCOc6nc7[nH]ccc7cc65)c4)C[C@H]3COCCCO[C@@H]2C1

>  <system name>
Bcl-2 protein (Homo sapiens (Human))

>  <Ki [pM]>
108

$$$$

----------
assay: Bioavailability study: pharmacokinetics after single intravenous or oral dose in mouse; format: in vivo; conditions: male, CD-1, mouse, plasma, iv, 1 mg/kg, IV 1 mg/kg, plasma, individual animal, read-out: VSS

>  <molecule>
CO[C@@H]1CC[C@@H](CNc2ccc(S(=O)(=O)NC(=O)c3ccc(N4CCN5CC6=C(c7ccc(Cl)cc7)CC(C)(C)C[C@H]6OCCCOC[C@@H]5C4)cc3N3CCCOc4nc5[nH]ccc5cc43)cc2[N+](=O)[O-])OC1

>  <Vd (L/kg)>
0.78

$$$$

----------
system: Molt-4 cells; test: Cell viability counter screen assay (CellTiter-Glo) in Molt-4 cells; assay type: cell-based; details: 24 hours, 10% Human Serum, 50% decrease in cell viability
pEC50: −log10 of the molar value.
We label by threshold. Values of pEC50 strictly beneath 6 are MET. Values of 6 and up are NOT MET.

>  <molecule>
CO[C@H]1CC[C@H](CNc2ccc(S(=O)(=O)NC(=O)c3ccc(N4CCN5CC6=C(c7ccc(Cl)cc7)CC(C)(C)C[C@H]6OCCCOC[C@@H]5C4)cc3N3CCCOc4nc5[nH]ccc5cc43)cc2Cl)OC1

>  <system name>
Molt-4 cells

>  <label value>
MET

$$$$
>  <molecule>
CC1(C)CC(c2ccc(Cl)cc2)=C2CN3CCN(c4ccc(C(=O)NS(=O)(=O)c5ccc(NC[C@H]6CC[C@H](N7CCOCC7)CC6)c([N+](=O)[O-])c5)c(N5CCCOc6nc7[nH]ccc7cc65)c4)C[C@H]3COCCCO[C@@H]2C1

>  <system name>
Molt-4 cells

>  <label value>
NOT MET

$$$$
>  <molecule>
CO[C@H]1CC[C@H](COc2ccc(S(=O)(=O)NC(=O)c3ccc(N4CCN5CC6=C(c7ccc(Cl)cc7)CC(C)(C)C[C@H]6OCCCOC[C@@H]5C4)cc3N3CCCOc4nc5[nH]ccc5cc43)cc2[N+](=O)[O-])OC1

>  <system name>
Molt-4 cells

>  <label value>
MET

$$$$
>  <molecule>
CO[C@H]1C[C@@H](CNc2ccc(S(=O)(=O)NC(=O)c3ccc(N4CCN5CC6=C(c7ccc(Cl)cc7)CC(C)(C)C[C@H]6OCCCOC[C@@H]5C4)cc3N3CCCOc4nc5[nH]ccc5cc43)cc2[N+](=O)[O-])C1

>  <system name>
Molt-4 cells

>  <label value>
MET

$$$$
>  <molecule>
CC1(C)CC(c2ccc(Cl)cc2)=C2CN3CCN(c4ccc(C(=O)NS(=O)(=O)c5ccc(OCC6CCOCC6)c([N+](=O)[O-])c5)c(N5CCCOc6nc7[nH]ccc7cc65)c4)C[C@H]3COCCCO[C@@H]2C1

>  <system name>
Molt-4 cells

>  <label value>
MET

$$$$
>  <molecule>
CO[C@H]1CC[C@H](COc2ccc(S(=O)(=O)NC(=O)c3ccc(N4CCN5CC6=C(c7ccc(Cl)cc7)CC(C)(C)C[C@H]6OCCCOC[C@@H]5C4)cc3N3CCCOc4nc5[nH]ccc5cc43)cc2Cl)OC1

>  <system name>
Molt-4 cells

>  <label value>
MET

$$$$
>  <molecule>
CO[C@H]1CC[C@H](CNc2ccc(S(=O)(=O)NC(=O)c3ccc(N4CCN5CC6=C(c7ccc(Cl)cc7)CC(C)(C)C[C@H]6OCCCOC[C@@H]5C4)cc3N3CCCOc4nc5[nH]ccc5cc43)cc2[N+](=O)[O-])CC1

>  <system name>
Molt-4 cells

>  <label value>
MET

$$$$
>  <molecule>
CC1(C)CC(c2ccc(Cl)cc2)=C2CN3CCN(c4ccc(C(=O)NS(=O)(=O)c5ccc(OC[C@H]6CC[C@H](N7CCOCC7)CC6)c(Cl)c5)c(N5CCCOc6nc7[nH]ccc7cc65)c4)C[C@H]3COCCCO[C@@H]2C1

>  <system name>
Molt-4 cells

>  <label value>
MET

$$$$
>  <molecule>
COC1(CNc2ccc(S(=O)(=O)NC(=O)c3ccc(N4CCN5CC6=C(c7ccc(Cl)cc7)CC(C)(C)C[C@H]6OCCCOC[C@@H]5C4)cc3N3CCCOc4nc5[nH]ccc5cc43)cc2[N+](=O)[O-])CCOCC1

>  <system name>
Molt-4 cells

>  <label value>
MET

$$$$
>  <molecule>
CO[C@@H]1CC[C@@H](COc2ccc(S(=O)(=O)NC(=O)c3ccc(N4CCN5CC6=C(c7ccc(Cl)cc7)CC(C)(C)C[C@H]6OCCCOC[C@@H]5C4)cc3N3CCCOc4nc5[nH]ccc5cc43)cc2[N+](=O)[O-])OC1

>  <system name>
Molt-4 cells

>  <label value>
MET

$$$$
>  <molecule>
CC1(C)CC(c2ccc(Cl)cc2)=C2CN3CCN(c4ccc(C(=O)NS(=O)(=O)c5ccc(NCC6(F)CCN(C7COC7)CC6)c([N+](=O)[O-])c5)c(N5CCCOc6nc7[nH]ccc7cc65)c4)C[C@H]3COCCCO[C@@H]2C1

>  <system name>
Molt-4 cells

>  <label value>
NOT MET

$$$$
>  <molecule>
CC1(C)CC(c2ccc(Cl)cc2)=C2CN3CCN(c4ccc(C(=O)NS(=O)(=O)c5cnc(OC[C@H]6CC[C@@](C)(O)CC6)c(Cl)c5)c(N5CCCOc6nc7[nH]ccc7cc65)c4)C[C@H]3COCCCO[C@@H]2C1

>  <system name>
Molt-4 cells

>  <label value>
MET

$$$$
